Item-by-item account of apparent KD of MS2 coat protein
Tested on: MS2 coat protein
Test: apparent KD of MS2 coat protein; higher = weaker reporter binding
Details: Eterna round: R107; input ligand: theophylline 20 uM
MEASURED_METRIC: apparent KD of MS2 coat protein (nM)

{"ORDERED_RESIDUES": "GAUGAUAUUGCAGAUACCAGACACAUGAGGAUCACCCAUGUCUCUGUGAUGUAGGAUUGUGUCCCUUGGCAGCUGCGAUAUCAUC [Chile]", "RESULT_UNITS": "nM", "MEASURED": 258}
{"ORDERED_RESIDUES": "CGCGGGCCACAUGAGGAUCACCCAUGUGAAGGAGCGGCGAAUAAGCCAGGUAGGUCGCGCAUGAAUAAAUCAUGUAGGUGGCGAA [XArg-A 10 V1&2]", "RESULT_UNITS": "nM", "MEASURED": 22.8}
{"ORDERED_RESIDUES": "UCCUCCUCCGCAAGGAGGAGGAGUUGCGAUACCAGCACGGUAACGUGCCCUUGGCAGCGCACAUGAGGAUCACCCAUGUGGUGUU [#1 Exclusion - Theophylline A Attempt #12 (HarryS)]", "RESULT_UNITS": "nM", "MEASURED": 455}
{"ORDERED_RESIDUES": "GCAUGUGGAGUCUUACUAGAGAGGACAGAUACCAGUAAGAUGUGAUACCCUUGGCAGCUGCGAUUUACAUGAGGAUCACCCAUGU [X-TheoA-ms2@67]", "RESULT_UNITS": "nM", "MEASURED": 21.4}
{"ORDERED_RESIDUES": "ACCUCACUCUCUGAUACCAGCUAAUAACAUGAGGAUCACCCAUGUCAGACUUGUAUUGAUAGCCCUUGGCAGCAGAGGUAACUGC [Theo B Ex t2]", "RESULT_UNITS": "nM", "MEASURED": 11.9}
{"ORDERED_RESIDUES": "GGUGGCGGGACUGAUACCAGCCACCACCGAUAGACCACAUGAGGAUCACCCAUGUUGGGUGGCCCUUGGCAGCAGUCUUGCGUCG [#1 Same State - Theophylline B Attempt #16 (HarryS)]", "RESULT_UNITS": "nM", "MEASURED": 92.9}
{"ORDERED_RESIDUES": "CUCCGAGGCUAUACUAUCCGCCUCUGUGAUACCAGAAUACCUAUAUUCCCUUGGCAGCAUCACAUGAGGAUCACCCAUGUGCCAU [SSTheo A #13]", "RESULT_UNITS": "nM", "MEASURED": 16.8}
{"ORDERED_RESIDUES": "ACGAUAGGACCUGAGGAUCACCCUGGUGAUACCAGCCUGGAAACAGGCCCUUGGCAGCACAAAUACUCCAAUAACCUAUCGAAUA [TheoAX 13 #MicroSwitchBubble #AlternativeMS2]", "RESULT_UNITS": "nM", "MEASURED": 698}
{"ORDERED_RESIDUES": "CCUAUGCAGUCGGCCGCCACUGAAAUCAAUAAGAUUACCUCAGAAACAUGAGGAUCACCCAUGUACAGGACCGGGACUGUAUAGG [Ex Tryptophan B 16]", "RESULT_UNITS": "nM", "MEASURED": 41.8}
{"ORDERED_RESIDUES": "CAAACAUGAGGAUCACCCAUGUAAACCGAAGGAGCGACGCAUAAGUCAGGUAGGUCGCGGAAGAUAAAAUAGAACACUGGGCACA [Same State Arginine A GF1]", "RESULT_UNITS": "nM", "MEASURED": 19.2}
{"ORDERED_RESIDUES": "UUGGUACAUGAGGAUCACCCAUGUACUGAAGGAGCGGGACGAAUCUCAGGUAGGUCGCAGACAUGAGGAUCACCCAUGUAUGGCU [Exclusion Arginine A GF 17]", "RESULT_UNITS": "nM", "MEASURED": 14.6}
{"ORDERED_RESIDUES": "AAAGAUUCCUGAACGCCGCAUACCGAUGAUACCAGCCAACGGAAAGGCCCUUGGCAGCAUUAAACAUGAGGAUCACCCAUGUCUA [theeternabot_exclusion_MS2_Theo_A_43]", "RESULT_UNITS": "nM", "MEASURED": 15}
{"ORDERED_RESIDUES": "AUCCUCAAGAAUGAUACCAGACCAAACAUGAGGAUCACCCAUGUAUCAGGCAAUUGUUACGUCCCUUGGCAGCAUGUAAGCCGAC [Theo B SS t2]", "RESULT_UNITS": "nM", "MEASURED": 70.2}
{"ORDERED_RESIDUES": "UCGGGCAUGGCGGCCGCCACUGGUUGGCGUGCGGAUGAGGGAACAUGAGGAUCACCCAUGUUGGUUAGGACCGGGCUUGCGUCGU [knkmullin]", "RESULT_UNITS": "nM", "MEASURED": 18}
{"ORDERED_RESIDUES": "UCAUGAGGAUCACCCAUGUGGCGUCUUGAUACCAGACGAGAAGUAGUCCCUUGGCAGCAAAUACAUGAGGAUCACCCAUGUAGGA [cccmullin2]", "RESULT_UNITS": "nM", "MEASURED": 38.2}

----------
Item-by-item account of apparent KD of MS2 coat protein
System: MS2 coat protein
Assay: apparent KD of MS2 coat protein; designed switch direction (-1 OFF switch, 1 ON switch): 1; higher = weaker reporter binding
Conditions: input ligand: none
MEASURED_METRIC: apparent KD of MS2 coat protein (nM)

{"ORDERED_RESIDUES": "AUACUGUACCGAGGAUAUCCAUUUUUCUAACAUGAGGAUCACCCAUGUGAAGGGAUUGAGUUGUAGGAGAAGGCGGUAUAGUAU [JR_SSNG2_Sub062] (Eterna round: R96, puzzle: Same State NG 2)", "MEASURED_METRIC": "apparent KD of MS2 coat protein", "MEASURED": 21.5}
{"ORDERED_RESIDUES": "UUCUCAUUUACAUGAGGAUCACCCAUGUUUUUUUGUAGGAAAUAGGAUAUAGGUCUCUCGUUUUACUAGAAGGAUUUCCUUAUU [JR_SSNG3_Sub090] (Eterna round: R96, puzzle: Same State NG 3)", "MEASURED_METRIC": "apparent KD of MS2 coat protein", "MEASURED": 48.5}
{"ORDERED_RESIDUES": "UUAAAGAAUUAAGGAUAUUGAAUACAUAUGUUUAACAUGAGGAUCACCCAUGUGGGUUGCGGUAUCGAGAAGGUAAAAUAAUAG [Mat - Same State NG 2 - JL mod - D5] (Eterna round: R96, puzzle: Same State NG 2)", "MEASURED_METRIC": "apparent KD of MS2 coat protein", "MEASURED": 118}

----------
Item-by-item account of apparent KD of K4 kissing-loop reporter
System: K4 kissing-loop RNA reporter;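 also: bound reporter read as fluorescence of individual clusters on recovered sequencing chips by microscopy, with normalized cluster intensities fitted with a binding model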
Assay: apparent KD of K4 kissing-loop reporter; higher = weaker reporter binding
Details: Eterna round: R107; input ligand: FMN 200 uM
MEASURED_METRIC: apparent KD of K4 kissing-loop reporter (nM)

{"ORDERED_RESIDUES": "ACACUUUACGUAGGAUAUGCGACGAGUGAUGUUCGUCAGGCGGCUUUAGCUUAAUCAGGCCGCCUAGCAGAAGGACGGGCAGUGU [Zaretiesre]", "MEASURED_METRIC": "apparent KD of K4 kissing-loop reporter", "RESULT_UNITS": "nM", "MEASURED": 142}
{"ORDERED_RESIDUES": "AUAGGAGUGAUGUUCCUUAGUUUCUCCGAUACCAGUAUGGAAACAUACCCUUGGCAGCGGGAAACCGCUGAUUAGGAAACUAGUC [Theophylline A K4 7]", "MEASURED_METRIC": "apparent KD of K4 kissing-loop reporter", "RESULT_UNITS": "nM", "MEASURED": 256}
{"ORDERED_RESIDUES": "UAGUCAUACAGAGGAUAUCGUAUGAGUGAUGUUCAUACGACAUAAUCGAGUUGUAUCGAUGUUCGACGAGAAGGCUGUAUGACUA [FMN B Ex t1b]", "MEASURED_METRIC": "apparent KD of K4 kissing-loop reporter", "RESULT_UNITS": "nM", "MEASURED": 210}
{"ORDERED_RESIDUES": "AAAUGCUUGUAUUUGAACAAUUCCUUUAGGGAGGAUAUUGGUAAUACAAGAAGGCCCUGAUGGGAGUGAUGUUCCCAUAACGCGG [Exclusion FMN A GF16]", "MEASURED_METRIC": "apparent KD of K4 kissing-loop reporter", "RESULT_UNITS": "nM", "MEASURED": 114}
{"ORDERED_RESIDUES": "CGCAGUGAUGUUGCGAAUAUAAUAACGGAAGGAGCGCGUGAAAACGCAGGUAGGUCGCCGAUUGGUAUGAUGGAAACAUCGUACC [Arginine A K4 9]", "MEASURED_METRIC": "apparent KD of K4 kissing-loop reporter", "RESULT_UNITS": "nM", "MEASURED": 154}
{"ORDERED_RESIDUES": "CGGACGGUAUCGGCCGCCACUCUGAAGACAGUGAUGUUGUCCGUGCAGUAUUUAGGAAAGCCGCGGAGGACCGGGAUGCGUCACU [theeternabot_sameState_KL_Trp_B_48]", "MEASURED_METRIC": "apparent KD of K4 kissing-loop reporter", "RESULT_UNITS": "nM", "MEASURED": 374}
